Cited source: patent US20240228465A1

Target: UniProt P03951
Sequence (P03951 388-625 limits assumed): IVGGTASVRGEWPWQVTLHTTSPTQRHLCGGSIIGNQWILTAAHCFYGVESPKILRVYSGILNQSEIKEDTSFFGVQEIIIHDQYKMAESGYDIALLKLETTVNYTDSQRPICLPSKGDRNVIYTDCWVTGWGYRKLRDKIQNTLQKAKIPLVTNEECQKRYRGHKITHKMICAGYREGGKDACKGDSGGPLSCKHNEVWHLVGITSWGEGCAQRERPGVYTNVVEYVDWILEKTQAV
Sequence (P03951 19-387 partner limits assumed): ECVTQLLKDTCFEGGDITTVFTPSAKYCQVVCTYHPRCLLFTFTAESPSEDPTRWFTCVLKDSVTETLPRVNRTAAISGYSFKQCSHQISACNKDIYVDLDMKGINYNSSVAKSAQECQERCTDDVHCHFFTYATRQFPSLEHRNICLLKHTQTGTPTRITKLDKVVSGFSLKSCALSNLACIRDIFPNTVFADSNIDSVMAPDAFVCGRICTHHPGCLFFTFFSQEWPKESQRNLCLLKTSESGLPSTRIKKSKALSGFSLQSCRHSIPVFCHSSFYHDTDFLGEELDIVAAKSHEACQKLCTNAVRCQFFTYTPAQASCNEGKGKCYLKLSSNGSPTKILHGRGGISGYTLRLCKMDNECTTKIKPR
Assay: Factor XIa inhibition assay utilizing a fluorophore-quencher pair peptide substrate (FLINT)
Assay type: biochemical
Details: kinetic reads at 5 min intervals over 30 min; 30 min preincubation; read-out: FXIa (KIN) IC50
measured_endpoint: pIC50
By convention, pIC50 is the negative base-10 log of a molar concentration.

compound	pIC50
COC(=O)Nc1ccc(-c2cn(C(CC3CC3)c3ccc(-c4c(-n5cnnn5)ccc(Cl)c4F)c[n+]3[O-])nn2)cc1 (single isomer, unassigned) [T3]	7.50
CCC(c1ccc(-c2c(-n3cnnn3)ccc(Cl)c2F)c[n+]1[O-])n1cnc(-c2ccc(NC(=O)OC)cc2)c1 (racemic)	7.92
Cn1ncnc1-c1cn(C(CCOC(F)F)c2ccc(-c3c(-n4cc(C(F)(F)F)nn4)ccc(Cl)c3F)c[n+]2[O-])cn1 (stereo not drawn)	8.37

Prompt line: Which pIC50 value is on record for COC(=O)Nc1ccc(-c2cn(C(CC3CC3)c3ccc(-c4c(-n5cnnn5)ccc(Cl)c4F)c[n+]3[O-])cn2)cc1 (stereo not drawn) ?
Response line: 8.07
